target-entity: Gal-4 hPPARα (Homo sapiens, UniProt Q07869)
Construct: Plasmids pGal4-hPPARα, pGal4-hPPARγ, pGal4-hPPARδ and pG5-TK-pGL3 were constructed as previously described by Staels, Bart, et al., Nature 1998 Jun; 25
Sequence (Q07869 200-468 limits assumed): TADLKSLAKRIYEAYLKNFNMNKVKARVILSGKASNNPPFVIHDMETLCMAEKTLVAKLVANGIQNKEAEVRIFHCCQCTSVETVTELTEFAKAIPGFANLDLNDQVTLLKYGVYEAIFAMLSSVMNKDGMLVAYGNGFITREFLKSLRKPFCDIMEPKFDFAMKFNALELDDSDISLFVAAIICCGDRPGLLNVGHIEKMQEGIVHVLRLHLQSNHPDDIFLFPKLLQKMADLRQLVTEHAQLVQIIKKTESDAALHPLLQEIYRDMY
experimental-protocol: Gal4-hPPARα transient transfection reporter assay in Cos cells
condition-set: luciferase reporter, 24 hours with compound, scale 1-5, read-out: Gal-4 hPPAR α EC50 (scaled number)
Recorded measurements of EC50, one per entry

// known answers, use as guide
{"columns": ["compound", "test-value"],
 "data": [
  ["CSc1ccc(Cn2cc(COC(=O)c3ccc(SC(C)(C)C(=O)O)cc3)cn2)cc1 [Compound 20]", "1 to 50 nM"],
  ["CCCCCCCCn1c(COC(=O)c2ccc(SC(C)(C)C(=O)O)cc2)nn(Cc2ccc(C)cc2)c1=O [Compound 161]", "1 to 50 nM"]
]}

Query: Look at this compound and give its reported EC50. CC(C)(Sc1ccc(C(=O)OCc2cnn(Cc3ccc(F)c(F)c3)c2)cc1)C(=O)O [Compound 24]
Result: 51 to 200 nM

Query: Entry CC(C)(Sc1ccc(C(=O)OCc2cnn(Cc3ccc(-c4ccccc4)cc3)c2)cc1)C(=O)O [Compound 22] : reported EC50 = ?
Result: 51 to 200 nM

###

System: pig liver esterase
experimental-protocol: Metabolism studies using pig liver esterase
Format: in vitro ADME
condition-set: pig liver esterase in phosphate buffer pH 7.4, no plasma, 37° C.; read-out: Pig Liver Esterase (t1/2 min.) (−) Plasma
readout-kind: half-life at 4.9 µM (min)

{"columns": ["smiles-str", "target-entity", "test-value"],
 "data": [
  ["CCCCCCCn1c(COC(=O)c2ccc(OC(C)(C)C(=O)O)cc2)nn(Cc2ccc(C)cc2)c1=O", "pig liver esterase", 27]
]}

(1) CCCn1c(COC(=O)c2ccc(SC(C)(C)C(=O)O)cc2)nn(Cc2ccc(C(C)(C)C)cc2)c1=O
(2) Cc1ccc(Cn2nncc2COC(=O)c2ccc(OC(C)(C)C(=O)O)cc2)cc1
(3) C[C@@H](OC(=O)c1ccc(SC(C)(C)C(=O)O)cc1)c1cn(Cc2ccc(C(F)(F)F)cc2)nn1
(4) CCCn1c(COC(=O)c2ccc(OC(C)(C)C(=O)O)cc2)nn(Cc2ccc(C(C)(C)C)cc2)c1=O
Query: Sequence the entries by half-life at 4.9 µM, beginning with the highest number. Answer by naming the labels in the order asked.
Result: 2, 3, 4, 1
(2: 120 min, 3: 68 min, 4: 31 min, 1: 3 min)

###

target-entity: Gal-4 hPPARα (Homo sapiens)
Construct: Plasmids pGal4-hPPARα, pGal4-hPPARγ, pGal4-hPPARδ and pG5-TK-pGL3 were constructed as previously described by Staels, Bart, et al., Nature 1998 Jun; 25
experimental-protocol: Gal4-hPPARα transient transfection reporter assay in Cos cells
condition-set: luciferase reporter, 24 hours with compound, scale 1-5, read-out: Gal-4 hPPAR α EC50 (scaled number)
pEC50: −log10 of the molar value.
readout-kind: pEC50

Example entries and their recorded answers appear below.
{"columns": ["molecule", "target-entity", "test-value"],
 "data": [
  ["CC(C)(Sc1ccc(C(=O)OCc2cn(Cc3ccc(C(F)(F)F)cc3)nn2)cc1)C(=O)O [Compound 102]", "Gal-4 hPPARα (Homo sapiens)", "6.70 to 7.29"],
  ["CC(C)(Oc1ccc(C(=O)OCc2cnn(Cc3ccc4c(c3)C(C)(C)CCC4(C)C)c2)cc1)C(=O)O", "Gal-4 hPPARα (Homo sapiens)", "6.00 to 6.70"],
  ["CCCn1c(COC(=O)c2ccc(OC(C)(C)C(=O)O)cc2)nn(Cc2ccc(C(C)(C)C)cc2)c1=O", "Gal-4 hPPARα (Homo sapiens)", "7.30 to 9.00"]
]}

Now look at this one.
Query: Reported pEC50 for CCn1c(COC(=O)c2ccc(SC(C)(C)C(=O)O)cc2)nn(Cc2ccc(C)cc2)c1=O : what is it?
Result: 6.70 to 7.29
